- SYSTEM: dopamine transporter (high-affinity uptake of [^3 H]dopamine into striatal nerve endings) (Rattus norvegicus)
- Construct: striatal nerve endings (synaptosomes); from tissue; host or cells: striatal nerve endings (synaptosomes)
- Sequence (P23977 whole entry): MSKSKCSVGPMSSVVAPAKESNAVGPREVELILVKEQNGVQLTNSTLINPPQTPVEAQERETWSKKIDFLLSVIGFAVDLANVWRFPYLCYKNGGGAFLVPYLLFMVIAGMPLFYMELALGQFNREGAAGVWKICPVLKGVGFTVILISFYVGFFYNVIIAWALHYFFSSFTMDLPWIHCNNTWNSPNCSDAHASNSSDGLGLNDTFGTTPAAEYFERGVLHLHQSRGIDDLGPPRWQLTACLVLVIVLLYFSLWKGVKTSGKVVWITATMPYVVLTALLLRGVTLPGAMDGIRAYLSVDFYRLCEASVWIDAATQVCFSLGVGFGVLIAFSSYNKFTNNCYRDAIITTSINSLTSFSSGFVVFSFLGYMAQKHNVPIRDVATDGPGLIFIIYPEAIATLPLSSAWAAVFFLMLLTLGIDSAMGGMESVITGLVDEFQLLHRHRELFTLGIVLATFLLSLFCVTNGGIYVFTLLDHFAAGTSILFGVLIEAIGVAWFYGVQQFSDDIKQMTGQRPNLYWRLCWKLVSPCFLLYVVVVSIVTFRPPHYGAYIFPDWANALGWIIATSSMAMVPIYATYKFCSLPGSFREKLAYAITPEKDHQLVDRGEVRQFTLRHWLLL
- PROTOCOL DESCRIPTION: inhibition of high-affinity uptake of [^3 H]dopamine into striatal nerve endings (synaptosomes)
- Type: biochemical
- CONDITIONS USED: mean ± SE (N); striatal synaptosomes; read-out: IC50 [^3 H] Dopamine Uptake
READOUT NAME: IC50 (nM)
Hi! Could you send only the number? It should be in nM, unit omitted.

GET /values?readout=IC50&item= C=C[C@H]1[C@@H](OC(=O)c2ccccc2)C[C@@H]2CC[C@H]1N2C
1120

GET /values?readout=IC50&item= CCOC(=O)/C=C/[C@H]1[C@@H](OC(=O)c2ccccc2)C[C@@H]2CC[C@H]1N2C
310

GET /values?readout=IC50&item= CN1[C@H]2CC[C@@H]1[C@@H](/C=C/Cl)[C@@H](OC(=O)c1ccccc1)C2
368

----------
- SYSTEM: dopamine transporter (Rattus norvegicus)
- PROTOCOL DESCRIPTION: displacement of [^3 H]mazindol binding from rat striatal membranes
READOUT NAME: log10(IC50) (log10 of the value in nM)
# log10 transformed; quantity=IC50; unit=nM

GET /values?readout=log10(IC50)&item= CCOC(=O)/C=C/[C@H]1[C@@H](OC(=O)c2ccccc2)C[C@@H]2CC[C@H]1N2C
1.70

GET /values?readout=log10(IC50)&item= COC(=O)[C@H]1[C@@H](c2ccc(Cl)cc2)C[C@@H]2CC[C@H]1N2C [Compound 1d, reference compound]
0.23

GET /values?readout=log10(IC50)&item= CCOP(=O)(/C=C/[C@H]1[C@@H](OC(=O)c2ccccc2)C[C@@H]2CC[C@H]1N2C)OCC
3.69

GET /values?readout=log10(IC50)&item= CN1[C@H]2CC[C@@H]1[C@@H](/C=C/Cl)[C@@H](c1ccc(Cl)cc1)C2
-0.14

GET /values?readout=log10(IC50)&item= C=C[C@H]1[C@@H](c2ccc(Cl)cc2)C[C@@H]2CC[C@H]1N2C
0.08
